Hey, just so you know, these numbers are from patent US10227357B2.

molecular target: c-kit mutant D816V (Homo sapiens, UniProt P10721, D816V/DEL694-753); construct: residues 551-934, kinase insertion domain residues 694-753 deleted; 6x-histidine (N); made in house; host or cells: E. coli Arctic Express (DE3) RIL (Stratagene); assay: c-Kit mutant D816V biochemical assay, AlphaScreen; details: c-kit D816V biochemical inhibitory activity; read-out: Biochemical activity (IC50 μM) Kit D816V
Sequence (P10721 with tags, fused parts or gaps DEL694-753/D816V): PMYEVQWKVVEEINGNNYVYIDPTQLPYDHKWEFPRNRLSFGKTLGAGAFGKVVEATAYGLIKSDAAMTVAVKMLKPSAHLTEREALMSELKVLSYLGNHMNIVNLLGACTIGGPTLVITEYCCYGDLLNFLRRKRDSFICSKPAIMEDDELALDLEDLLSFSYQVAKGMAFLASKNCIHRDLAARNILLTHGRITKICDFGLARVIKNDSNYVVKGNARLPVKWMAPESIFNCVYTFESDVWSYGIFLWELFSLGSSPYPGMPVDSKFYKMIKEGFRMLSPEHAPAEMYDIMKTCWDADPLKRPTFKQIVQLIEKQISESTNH

[
  {
    "smi": "COc1cc(-c2cc3c(N4CCN(C(=O)Nc5ccc(OC(F)(F)F)cc5)CC4)ncnc3[nH]2)ccn1",
    "experimental target": "c-kit mutant D816V (Homo sapiens, UniProt P10721, D816V/DEL694-753)",
    "IC50": "10 to 200 µM"
  },
  {
    "smi": "Cc1ccc(S(=O)(=O)Nc2ccc(-c3ncnc4cc(-c5ccc(F)cc5)sc34)cc2)cc1",
    "experimental target": "c-kit mutant D816V (Homo sapiens, UniProt P10721, D816V/DEL694-753)",
    "IC50": "0.0001 to 1 µM"
  },
  {
    "smi": "Cc1n[nH]c2ncnc(-c3ccc(NS(=O)(=O)c4ccc(F)cc4)cc3)c12",
    "experimental target": "c-kit mutant D816V (Homo sapiens, UniProt P10721, D816V/DEL694-753)",
    "IC50": "0.0001 to 1 µM"
  },
  {
    "smi": "Cc1cc2c(-c3ccc(NS(=O)(=O)c4cccc(F)c4)cc3F)ncnc2[nH]1",
    "experimental target": "c-kit mutant D816V (Homo sapiens, UniProt P10721, D816V/DEL694-753)",
    "IC50": "1 to 10 µM"
  },
  {
    "smi": "O=S(=O)(NC1CCN(c2ncnc3[nH]ccc23)CC1)c1cc(F)ccc1F",
    "experimental target": "c-kit mutant D816V (Homo sapiens, UniProt P10721, D816V/DEL694-753)",
    "IC50": "10 to 200 µM"
  },
  {
    "smi": "COc1cc2ncnc(-c3ccc(N)cc3F)c2cc1OC",
    "experimental target": "c-kit mutant D816V (Homo sapiens, UniProt P10721, D816V/DEL694-753)",
    "IC50": "0.0001 to 1 µM"
  },
  {
    "smi": "C[C@H](NC(=O)N1CC=C(c2ncnc3cc(-c4ccc(F)cc4)sc23)CC1)c1cccc(OC(F)F)c1",
    "experimental target": "c-kit mutant D816V (Homo sapiens, UniProt P10721, D816V/DEL694-753)",
    "IC50": "1 to 10 µM"
  },
  {
    "smi": "C[C@H](NC(=O)N1CCN(c2ncnc3[nH]c(-c4ccncc4)cc23)C[C@H]1C)c1ccc(F)cc1",
    "experimental target": "c-kit mutant D816V (Homo sapiens, UniProt P10721, D816V/DEL694-753)",
    "IC50": "0.0001 to 1 µM"
  },
  {
    "smi": "O=C(Nc1ccc(OC(F)(F)F)cc1)NC1CCN(c2ncnc3[nH]ccc23)CC1",
    "experimental target": "c-kit mutant D816V (Homo sapiens, UniProt P10721, D816V/DEL694-753)",
    "IC50": "10 to 200 µM"
  },
  {
    "smi": "Cc1cc2c(-c3ccc(NS(=O)(=O)c4ccc(C(F)(F)F)cn4)cc3)ncnc2[nH]1",
    "experimental target": "c-kit mutant D816V (Homo sapiens, UniProt P10721, D816V/DEL694-753)",
    "IC50": "1 to 10 µM"
  },
  {
    "smi": "Cc1cc2c(-c3cccc(NS(C)(=O)=O)c3)ncnc2[nH]1",
    "experimental target": "c-kit mutant D816V (Homo sapiens, UniProt P10721, D816V/DEL694-753)",
    "IC50": "10 to 200 µM"
  },
  {
    "smi": "Nc1ccc(-c2ncnc3cc(-c4ccc(F)cc4)sc23)cc1",
    "experimental target": "c-kit mutant D816V (Homo sapiens, UniProt P10721, D816V/DEL694-753)",
    "IC50": "1 to 10 µM"
  },
  {
    "smi": "O=S(=O)(Nc1ccc(-c2ncnc3[nH]c(-c4ccc(F)cc4)cc23)c(F)c1)C1CC1",
    "experimental target": "c-kit mutant D816V (Homo sapiens, UniProt P10721, D816V/DEL694-753)",
    "IC50": "0.0001 to 1 µM"
  },
  {
    "smi": "Cc1ccc(-c2cc3c(N4CCN(C(=O)Nc5ccc(OC(F)(F)F)cc5)CC4)ncnc3[nH]2)cn1",
    "experimental target": "c-kit mutant D816V (Homo sapiens, UniProt P10721, D816V/DEL694-753)",
    "IC50": "10 to 200 µM"
  },
  {
    "smi": "O=C(NCc1ccc(F)cc1)N1CCN(c2ncnc3cc(C4CCN(C(=O)C5CC5)CC4)sc23)CC1",
    "experimental target": "c-kit mutant D816V (Homo sapiens, UniProt P10721, D816V/DEL694-753)",
    "IC50": "0.0001 to 1 µM"
  },
  {
    "smi": "Cn1cc(-c2cc3c(N4CCC(NS(=O)(=O)c5cccc(OC(F)(F)F)c5)CC4)ncnc3[nH]2)cn1",
    "experimental target": "c-kit mutant D816V (Homo sapiens, UniProt P10721, D816V/DEL694-753)",
    "IC50": "10 to 200 µM"
  },
  {
    "smi": "O=C(Nc1ccc(OC(F)(F)F)cc1)N1CCN(c2ncnc3[nH]c(-c4ccncc4)cc23)CC1",
    "experimental target": "c-kit mutant D816V (Homo sapiens, UniProt P10721, D816V/DEL694-753)",
    "IC50": "1 to 10 µM"
  },
  {
    "smi": "CCc1ccc(S(=O)(=O)NC2CCN(c3ncnc4[nH]c(C)cc34)CC2)cc1",
    "experimental target": "c-kit mutant D816V (Homo sapiens, UniProt P10721, D816V/DEL694-753)",
    "IC50": "1 to 10 µM"
  },
  {
    "smi": "C[C@H](NC(=O)N1CCN(c2ncnc3[nH]c(-c4ccc(C#N)cc4)cc23)CC1(C)C)c1cccc(F)c1",
    "experimental target": "c-kit mutant D816V (Homo sapiens, UniProt P10721, D816V/DEL694-753)",
    "IC50": "0.0001 to 1 µM"
  },
  {
    "smi": "C#Cc1cc2c(N3CCN(C(=O)Nc4ccc(OCC)cc4)CC3)ncnc2[nH]1",
    "experimental target": "c-kit mutant D816V (Homo sapiens, UniProt P10721, D816V/DEL694-753)",
    "IC50": "10 to 200 µM"
  },
  {
    "smi": "Nc1ccc(-c2ncnc3[nH]c(-c4ccc(F)cc4)cc23)cc1",
    "experimental target": "c-kit mutant D816V (Homo sapiens, UniProt P10721, D816V/DEL694-753)",
    "IC50": "0.0001 to 1 µM"
  },
  {
    "smi": "Fc1ccc(-c2cc3c(N4CCN(c5nc6ccccc6[nH]5)CC4)ncnc3[nH]2)cc1",
    "experimental target": "c-kit mutant D816V (Homo sapiens, UniProt P10721, D816V/DEL694-753)",
    "IC50": "0.0001 to 1 µM"
  },
  {
    "smi": "COc1ccc(S(=O)(=O)Nc2ccc(-c3ncnc4[nH]c(C)cc34)cc2)cc1",
    "experimental target": "c-kit mutant D816V (Homo sapiens, UniProt P10721, D816V/DEL694-753)",
    "IC50": "1 to 10 µM"
  },
  {
    "smi": "O=S(=O)(Nc1cccc(-c2ncnc3[nH]c(-c4cnc(C5CC5)nc4)cc23)c1)C1CC1",
    "experimental target": "c-kit mutant D816V (Homo sapiens, UniProt P10721, D816V/DEL694-753)",
    "IC50": "10 to 200 µM"
  },
  {
    "smi": "[2H]C([2H])([2H])S(=O)(=O)Nc1ccc(-c2ncnc3cc(OCCCN4CCCCC4)c(OC)cc23)c(F)c1",
    "experimental target": "c-kit mutant D816V (Homo sapiens, UniProt P10721, D816V/DEL694-753)",
    "IC50": "0.0001 to 1 µM"
  },
  {
    "smi": "C[C@H](NC(=O)N1CCN(c2ncnc3cc(-c4ccc(F)cc4)sc23)CC1(C)C)c1cccc(Cl)c1",
    "experimental target": "c-kit mutant D816V (Homo sapiens, UniProt P10721, D816V/DEL694-753)",
    "IC50": "0.0001 to 1 µM"
  },
  {
    "smi": "Cc1cc2c(-c3ccc(NS(=O)(=O)c4ccc(Cl)cc4)cc3)ncnc2[nH]1",
    "experimental target": "c-kit mutant D816V (Homo sapiens, UniProt P10721, D816V/DEL694-753)",
    "IC50": "1 to 10 µM"
  },
  {
    "smi": "Cc1ccc(S(=O)(=O)Nc2ccc(-c3ncnc4cc(C5CCNCC5)sc34)cc2)cc1",
    "experimental target": "c-kit mutant D816V (Homo sapiens, UniProt P10721, D816V/DEL694-753)",
    "IC50": "0.0001 to 1 µM"
  },
  {
    "smi": "COc1cccc([C@H](C)NC(=O)N2CCN(c3ncnc4cc(N5CCC(F)(F)CC5)sc34)CC2(C)C)c1",
    "experimental target": "c-kit mutant D816V (Homo sapiens, UniProt P10721, D816V/DEL694-753)",
    "IC50": "0.0001 to 1 µM"
  },
  {
    "smi": "O=C(NCc1ccc(Cl)cc1)N1CCN(c2ncnc3[nH]c(C4CC4)cc23)CC1",
    "experimental target": "c-kit mutant D816V (Homo sapiens, UniProt P10721, D816V/DEL694-753)",
    "IC50": "0.0001 to 1 µM"
  }
]
